# Tested on: KM12 colon
# test_method_notes: NCI tumour cell line growth inhibition, 48 h
Where a SMILES comes first, the peptide text is derived from it. [ ]: non-standard residue; d: D form. The star is where a group is joined. ξ: configuration not given here. Cbz = O=C(OCc1ccccc1)*; ξK = NCCCCC(N)C(=O)O
assay_endpoint: TGI

Q: Find the measured TGI of N#CCCC1(CCC#N)CCc2ccccc2C1=O and report it.
Result: > 100 µM

Q: Give me measured TGI, please, for this molecule: O=C1C=CC(=O)c2c(O)c(CO)c(CO)c(O)c21
Result: 3.19 µM

Q: Hello, please tell me recorded TGI for this one: O=C1C=Cc2cscc21
Result: > 100 µM

Q: Report measured TGI; entry is NCCCCC(NC(=O)OCc1ccccc1)C(=O)NCC(N)=O (stereo not drawn) (Cbz-[ξK]-Gly-NH2)
Result: > 100 µM

Q: Supply measured TGI of Nc1nc(-c2cccc3ccccc23)cc2ccccc12 in your reply.
Result: 9.7 µM

Others:
Q: For the molecule C=C(C(=O)OC)[C@H]1CC/C(C)=C/CC[C@@](C)(O)C=CC[C@@]2(C)O[C@@H]2C1 , give its reported TGI.
Result: > 100 µM

Q: Quick one: give measured TGI for O=c1oc2ccccc2c(O)c1/C=N/C(=S)Nc1ccccc1
Result: > 100 µM

Q: Could you please provide reported TGI for NC(=O)NN=C1C[C@H]2CCCC[C@H]2C1 ? Thanks!
Result: > 100 µM
